- Tested on: A498 renal
- experimental-protocol: NCI-60 one-dose screen, 48 h
- conditions: 10 µM unless noted
Compounds without any hit were thinned out: in the full panel of roughly 83,000, 20% have a hit. Calls of active or inactive are those of the source. Rule for the calls: active = growth percent below 10; inactive = the rest.
Respond with a class label; see class 1 = active, class 0 = inactive

Completed entries (count: 5):
CCN(CC)c1ccc(/C=N/NC(=O)Cc2ccc(Nc3ccnc(C(F)(F)F)c3)cc2)c(O)c1 = class 0
C=CC(=O)Nc1ccc(Nc2nccc(-c3ccc(N4CCCC4)c(C#N)c3)n2)cc1 = class 1
COc1cc(C(=O)c2c(-c3ccccc3)oc3c(OC)cccc23)cc(OC)c1OC = class 1
CCN(CC)CCCOc1ccc2ncnc(Nc3ccc(Oc4cccc(C(F)(F)F)c4)c(Cl)c3)c2c1 = class 0
CCN1CCN(c2cc(C)nc(N(CCNc3ccnc4cc(Cl)ccc34)Cc3ccc4c(c3)OCO4)n2)CC1 = class 1

What call does the record list for NS(=O)(=O)c1ccc(-c2cc(-c3nnc(SCC(=O)Nc4ccc(C(=O)/C=C/c5ccc(Cl)cc5)cc4)n3-c3ccccc3)c3ccccc3n2)cc1 ?
class 0

What call does the record list for COc1ccc(-c2nc(-c3cn(C)c4ncccc34)cs2)cc1 ?
class 0

What call does the record list for COc1ccc2c(c1)c(-c1nc(-c3c[nH]c4ncccc34)cs1)cn2CCCN1CCOCC1 ?
class 0

What call does the record list for Cc1cn(-c2cc(NC(=O)c3cncc(C#Cc4c(N)ncc5ccc(F)cc45)c3)cc(C(F)(F)F)c2)cn1 ?
class 0

What call does the record list for FC(F)(F)c1ccc(Cn2cc(CSc3nc4ccccc4s3)nn2)cc1 ?
class 0

What call does the record list for COc1ccc2[nH]cc(-c3nc(-c4c[nH]c5c(Cl)nccc45)cs3)c2c1 ?
class 1

What call does the record list for COc1cccc(-c2cc(-c3cccc(Cl)c3)c(C#N)c(=O)[nH]2)c1 ?
class 0

What call does the record list for COc1ccc(/C=C/C(=O)c2cc3c(N)c(C(=O)Nc4cccc(Cl)c4C)sc3nc2C)cc1 ?
class 1

What call does the record list for O=C(NNC(=O)c1ccc(NC(=O)c2ccccn2)cc1)Nc1ccc2ccccc2c1 ?
class 0

What call does the record list for CCN1CCN(C(=O)[C@]23CC[C@@H](C)[C@H](C)[C@@H]2C2=CC[C@@H]4[C@@]5(C)C/C(=C/c6cccnc6)C(=O)C(C)(C)[C@@H]5CC[C@@]4(C)[C@]2(C)CC3)CC1 ?
class 0

What call does the record list for Cc1ccc2c(-n3nc(C#N)c(C#N)c3N)cc(=O)[nH]c2c1 ?
class 0

What call does the record list for Fc1cccc(-c2ccc3c(c2)C2(CCNCC2)CN3)c1 ?
class 0

What call does the record list for COC(=O)c1c2c(c(C)[n+]([O-])c1C)C(=O)C(NCc1cccc(Cl)c1)=CC2=O ?
class 0

What call does the record list for COCCn1cc(-c2csc(-c3c[nH]c4ccc(Br)cc34)n2)c2cccnc21 ?
class 0

What call does the record list for CC1(C)CC[C@]2(C(=O)N[C@H](CO)Cc3ccccc3)CC[C@]3(C)C(=CC[C@@H]4[C@@]5(C)CCCNC(C)(C)[C@@H]5CC[C@]43C)[C@@H]2C1 ?
class 0

----------
- Tested on: MDA-MB-231 breast
- experimental-protocol: NCI-60 one-dose screen, 48 h (100 = growth as untreated, 0 = no growth, -100 = all killed)
- conditions: 10 µM unless noted
The panel holds about 83,000 compounds, 20% with a hit somewhere; the sample as a whole holds those more often.
measured-endpoint: growth (%)
The reply should contain only the number, in %.

C=C1C(=O)O[C@H]2[C@H]1CC/C(COC(=O)/C=C\C(=O)NCc1ccc(Cn3c(=O)sn(CCCl)c3=O)cc1)=C\CC[C@@]1(C)O[C@@H]21 = 90
C=C(CNCCO)[C@@H]1CC[C@]2(CO)CC[C@]3(C)[C@H](CC[C@@H]4[C@@]5(C)CCC(N)C(C)(C)[C@@H]5CC[C@]43C)[C@@H]12 (some centres undefined) = 2.59
COc1cccc(/C=C/C(=O)c2cc3c(N)c(C(=O)Nc4cccc5ccccc45)sc3nc2C)c1 = -3.88

Per the records, this compound ( CC1(C)CC(=O)c2c(nn(-c3ccc(Br)cc3)c2-c2cn(-c3ccccc3)nc2-c2cccnc2)C1 ) has growth equal to 89.7

----------
- Test system: SK-OV-3 ovarian
- experimental-protocol: NCI-60 one-dose screen, 48 h (100 = growth as untreated, 0 = no growth, -100 = all killed)
- conditions: 10 µM unless noted
The panel holds about 83,000 compounds, 20% with a hit somewhere; the sample as a whole holds those more often.
measured-endpoint: growth (%)
The reply should contain only the number, in %.

The cases that follow already have their growth on record.
CNC(=O)c1cc(Oc2cccc3nc(NC(=O)Nc4cc(C(F)(F)F)ccc4Cl)ccc23)ccn1 = 115
O=C(CN1CCN(c2cc3c(cc2F)c(=O)c(C(=O)O)cn3C2CC2)CC1)N/N=C/c1ccco1 = 88.8
Nc1[nH]n2cc(-c3ccc(F)cc3)nc2c1N=Nc1ccc(S(N)(=O)=O)cc1 = 73.9
Nc1ncnc2c1N=C(c1ccc3c(c1)OCO3)CC(c1cccc(Nc3ccnc4cc(C(F)(F)F)ccc34)c1)N2 (stereo not given) = 80.2

Per the records, this molecule ( Cc1cccc2c1C[C@@]1(C2=O)C(c2ccc(C(C)(C)C)cc2)=NOS1=O (stereo not given in full) ) has growth equal to 98.4

----------
- Test system: SF-295 CNS
- experimental-protocol: NCI-60 one-dose screen, 48 h (100 = growth as untreated, 0 = no growth, -100 = all killed)
- conditions: 10 µM unless noted
Compounds without any hit were thinned out: in the full panel of roughly 83,000, 20% have a hit.
measured-endpoint: growth (%)
The reply should contain only the number, in %.

Cc1ccc(-c2nc(SCc3nc4cc(Cl)c(Cl)cc4[nH]3)[nH]c(=O)c2C#N)cc1 = 104

Per the records, this compound ( Nc1[nH]c(=S)nc2oc(-c3ccccc3)c(-c3ccccc3)c12 ) has growth equal to 96.1

Per the records, this compound ( COc1cccc(/C=C/C(=O)c2cccc(Nc3nc(Nc4ccccc4)nc(Nc4ccccc4)n3)c2)c1 ) has growth equal to 71.4

Per the records, this compound ( CCOC(=O)C1=C(C)/C(=C\c2[nH]c(C)c(C(=O)OCC)c2C)N=C1C ) has growth equal to 96.9

Per the records, this compound ( CCNc1ccc(-c2nc3ccccc3n3cccc23)cc1 ) has growth equal to 69

Per the records, this compound ( CCCCCCCCCCCCCCCCCC1=NC(C)(C)CN1CC(C)O (stereo not given) ) has growth equal to 95.9

Per the records, this compound ( COC(=O)CC[C@@H]1O[C@@H](c2ccc(F)cc2)[C@@H](O)[C@H]1O ) has growth equal to 104

Per the records, this compound ( CC(C)CCN(CCC(C)C)CC(O)c1cc2c(c3ccccc13)CCCC2 (stereo not given) ) has growth equal to 76.5

Per the records, this compound ( O=C1Nc2ccccc2/C1=C/c1cccn1C(=O)c1ccc(Cl)s1 ) has growth equal to 88.8

Per the records, this compound ( CC1=CCC(OC(=O)C(C)(C)CC(O)(C(C)O)C(O)C2(C)C=CC(Cc3ccc(C(C)C)cc3)(C(C)C)CC2)(C(C)C)CC1 (stereo not given) ) has growth equal to 97.1

----------
- System: SR leukemia
- experimental-protocol: NCI-60 one-dose screen, 48 h
- conditions: 10 µM unless noted
Compounds without any hit were thinned out: in the full panel of roughly 83,000, 20% have a hit. Active and inactive are the calls of the source. Rule for the calls: active = growth percent below 10; inactive = the rest.
Respond with a class label; see active, inactive

What call does the record list for COc1ccc(CCN(CC(=O)N(CC(N)=O)C2CCC[C@@H]2OCc2ccccc2)C(=O)CN(C(=O)CN(CCc2ccc(Cl)cc2)C(=O)CN(C(=O)CN(C)Cc2ccccc2F)[C@H](C)C2CCCCC2)[C@H](C)C2CCCCC2)cc1OC (stereo not given in full) ?
active

----------
- System: HS 578T breast
- experimental-protocol: NCI-60 one-dose screen, 48 h
- conditions: 10 µM unless noted
About 83,000 compounds went through this panel and 20% of them were active in at least one assay; those are over-represented in the sample as a whole. The source made the active and inactive calls. How the source made its calls: active means growth percent below 10; inactive means the rest.
Respond with a class label; see active, inactive

Completed entries (count: 3):
COc1ccc(-c2nc3c(N)c(CO)cnc3s2)cc1 = inactive
COc1ccc(C#Cc2ccc(=O)oc2-c2cc(OC)c(OC)c(OC)c2)cc1O = inactive
CO[C@H](C(=O)[C@@H](O)[C@@H](C)O)[C@@H]1Cc2cc3cc(O[C@H]4C[C@@H](O[C@H]5C[C@@H](O)[C@H](O)C(C)O5)[C@H](O)C(C)(O)O4)cc(O)c3c(O)c2C(=O)[C@H]1O[C@H]1C[C@@H](O[C@H]2C[C@@H](O[C@H]3C[C@@H](OC)[C@H](O)C(C)O3)[C@@H](O)C(C)O2)[C@H](O)C(C)O1 (some centres not stated) = inactive

What call does the record list for CC1(C)CC2=C3C=C[C@@H]4[C@@]5(C)CCC(=O)C(C)(C)[C@@H]5CC[C@@]4(C)[C@]3(C)CC[C@@]2(C(=O)O)C[C@H]1O ?
inactive

What call does the record list for COc1cnc2c(c1)C(=O)c1c-2n(CCCCl)c(=O)c2ccncc12 ?
inactive

What call does the record list for COc1ccc(C(=O)c2cc3c(N)c(C(=O)Nc4ccccc4)sc3nc2C)cc1 ?
inactive

What call does the record list for C=C1C(=O)O[C@H]2[C@H]1CC/C(CNC(=O)c1c[nH]c3ccc(F)cc13)=C\CC[C@@]1(C)O[C@@H]21 ?
inactive
